Where do the numbers come from? From patent US9061980B2.

System: Enterococcus faecalis ATCC29212 B4
MEASUREMENT_NOTES: MIC determination according to CLSI
Type: cell-based
EXPERIMENTAL_PARAMETERS: Enterococcus faecalis ATCC29212, strain B4; read-out: MIC
Here the recorded MIC is given for each entry.
MEASURED_METRIC: MIC

# COMPOUND, MEASURED_METRIC, RESULT
records = [
    ("C=C[C@]1(C)C[C@@H](OC(=O)COc2cccc(O)c2)[C@]2(C)C(C)CCC3(CCC(=O)C32)[C@@H](C)[C@@H]1O (stereo partly drawn) [Example 15]", "MIC", "12.8 µg/mL"),
    ("C=C[C@]1(C)C[C@@H](OC(=O)CSc2ccccc2O)[C@]2(C)C(C)CCC3(CCC(=O)C32)[C@@H](C)[C@@H]1O (stereo partly drawn) [Example 9]", "MIC", "> 25.6 µg/mL"),
    ("C=C[C@]1(C)C[C@@H](OC(=O)CSc2cccc(O)c2)[C@]2(C)C(C)CCC3(CCC(=O)C32)[C@@H](C)[C@@H]1O (stereo partly drawn) [Example 7]", "MIC", "> 25.6 µg/mL"),
]

----------
Tested on: Moraxella catarrhalis ATCC43618 B407
MEASUREMENT_NOTES: MIC determination according to CLSI
Format: cell-based
EXPERIMENTAL_PARAMETERS: Moraxella catarrhalis ATCC43618, strain B407; read-out: MIC
MEASURED_METRIC: MIC (µg/mL)

# MOLECULE, TARGET_SYSTEM, INEQUALITY_SIGN, RESULT
data = [
    ("C=C[C@]1(C)C[C@@H](OC(=O)CSc2cccc(C)c2)[C@]2(C)C(C)CCC3(CCC(=O)C32)[C@@H](C)[C@@H]1O (stereo partly shown) [Example 14]", "Moraxella catarrhalis ATCC43618 B407", "=", 0.0125),
    ("C=C[C@]1(C)C[C@@H](OC(=O)CSc2ccccc2F)[C@]2(C)C(C)CCC3(CCC(=O)C32)[C@@H](C)[C@@H]1O (stereo partly shown) [Example 3]", "Moraxella catarrhalis ATCC43618 B407", "=", 0.025),
    ("C=C[C@]1(C)C[C@@H](OC(=O)CSc2ccccc2O)[C@]2(C)C(C)CCC3(CCC(=O)C32)[C@@H](C)[C@@H]1O (stereo partly shown) [Example 9]", "Moraxella catarrhalis ATCC43618 B407", "≤", 0.0125),
    ("C=C[C@]1(C)C[C@@H](OC(=O)CSc2cccc(O)c2)[C@]2(C)C(C)CCC3(CCC(=O)C32)[C@@H](C)[C@@H]1O (stereo partly shown) [Example 7]", "Moraxella catarrhalis ATCC43618 B407", "≤", 0.0125),
    ("C=C[C@]1(C)C[C@@H](OC(=O)CSc2ccccc2OC)[C@]2(C)C(C)CCC3(CCC(=O)C32)[C@@H](C)[C@@H]1O (stereo partly shown) [Example 12]", "Moraxella catarrhalis ATCC43618 B407", "=", 0.1),
    ("C=C[C@]1(C)C[C@@H](OC(=O)COc2cccc(O)c2)[C@]2(C)C(C)CCC3(CCC(=O)C32)[C@@H](C)[C@@H]1O (stereo partly shown) [Example 15]", "Moraxella catarrhalis ATCC43618 B407", "≤", 0.0125),
    ("C=C[C@]1(C)C[C@@H](OC(=O)CSc2cccc(F)c2)[C@]2(C)C(C)CCC3(CCC(=O)C32)[C@@H](C)[C@@H]1O (stereo partly shown) [Example 1]", "Moraxella catarrhalis ATCC43618 B407", "≤", 0.0125),
    ("C=C[C@]1(C)C[C@@H](OC(=O)CSc2ccc(F)cc2F)[C@]2(C)C(C)CCC3(CCC(=O)C32)[C@@H](C)[C@@H]1O (stereo partly shown) [Example 6]", "Moraxella catarrhalis ATCC43618 B407", "=", 0.05),
    ("C=C[C@]1(C)C[C@@H](OC(=O)COc2ccccc2O)[C@]2(C)C(C)CCC3(CCC(=O)C32)[C@@H](C)[C@@H]1O (stereo partly shown) [Example 17]", "Moraxella catarrhalis ATCC43618 B407", "=", 0.0125),
    ("C=C[C@]1(C)C[C@@H](OC(=O)CSc2cccc(OC)c2)[C@]2(C)C(C)CCC3(CCC(=O)C32)[C@@H](C)[C@@H]1O (stereo partly shown) [Example 10]", "Moraxella catarrhalis ATCC43618 B407", "≤", 0.0125),
]
